tested.on: DRB1*07:01 (Homo sapiens, UniProt P01903+P01911, A100R/A102G/A103Q/D57E/D86V/E43K/F76Y/K127E/L162R/M171V/P40G/Q125H/Q99D/R33Q/R42Y/R54Q/S133A/S66F/T210M/V115G/Y107V/Y59L/Y89S)
assay.method.text: REVEAL HLA-Peptide binding assay (ProImmune)
experimental.conditions: time 0 (H0); score relative to high-affinity control peptide, percentage of the control signal
Protocol: To test the designs, we synthesized twenty overlapping 15-mer peptides containing the introduced mutations and their wild-type counterparts. […] The affinity of these peptides to the three HLA alleles was measured at time zero and after 24 hours (Methods, Supplementary S3 and S4 Tables). […] Overall, the measured and predicted immunogenicity of the tested peptides correlated well with r = 0.76 (CI95 = [0.48, 0.91], t = 4.885, df = 17, p-value = 1.4e-4; Fig 5A). […]
Each record's DRB1*07:01 is compared with low: < 30%; medium: ≥ 30% and < 60%; high: ≥ 60% to give its class.

FTRYLRIHPQSWEHQ [Design M-10, peptide covering L2321F, V2333E] : medium
RIHPQSWVHHIALRM [Design M-4, peptide covering Q2335H] : high
VNSLDPPLYTRYLRI [Design M-3, peptide covering L2321Y] : low
LRIHPQSWVHHIALRM [Design M-5, peptide covering Q2335H] : high
LRIHPQSWVHQIALRM [WT-4, wild-type peptide of Factor VIII C2 domain, reference compound] : medium

Query: Place this sequence in its band: LRIHPQSWEHQIALRM [Design M-6, peptide covering V2333E]
Response: medium

Query: Place this sequence in its band: FTRYLRIHPQSWVHH [Design M-13, peptide covering L2321F, Q2335H]
Response: medium

###

tested.on: DRB1*15:01 (Homo sapiens, UniProt P01903+P01911)
Construct: purchased ProImmune
assay.method.text: REVEAL HLA-Peptide binding assay (ProImmune)
experimental.conditions: time 0 (H0); score relative to high-affinity control peptide, percentage of the control signal
measurement.label: DRB1*15:01 (%)
Give the number; % is assumed, so skip it.

Here are 3 sequences together with their reported answers.
VNSLDPPLYTRYLRI [Design M-3, peptide covering L2321Y] : 0.000
TTRYLRIHPQSWEHQ [Design M-11, peptide covering L2321T, V2333E] : 6.575
LRLHPQSWEHQIALRM [Design M-15, peptide covering I2327L, V2333E] : 18.099

Next sequence, DRB1*15:01 to be filled in.
Query: Which DRB1*15:01 reading was recorded for the sequence LTRLLRIHPQSWEHQ [Design M-7, peptide covering Y2324L, V2333E] ?
Response: 5.445

###

tested.on: DRB1*07:01 (Homo sapiens, UniProt P01903+P01911, A100R/A102G/A103Q/D57E/D86V/E43K/F76Y/K127E/L162R/M171V/P40G/Q125H/Q99D/R33Q/R42Y/R54Q/S133A/S66F/T210M/V115G/Y107V/Y59L/Y89S)
assay.method.text: REVEAL HLA-Peptide binding assay (ProImmune)
experimental.conditions: time 0 (H0); score relative to high-affinity control peptide, percentage of the control signal
measurement.label: DRB1*07:01 (%)
Give the number; % is assumed, so skip it.

Here are 7 sequences together with their reported answers.
YTRYLRIHPQSWEHQ [Design M-12, peptide covering L2321Y, V2333E] : 59.728
LTRYLRIHPQSWVHQ [WT-3, wild-type peptide of Factor VIII C2 domain, reference compound] : 87.324
LRLHPQSWEHQIALRM [Design M-15, peptide covering I2327L, V2333E] : 42.841
VNSLDPPLTTRYLRI [Design M-2, peptide covering L2321T] : 0.100
VNSLDPPLLTRYLRI [WT-1, wild-type peptide of Factor VIII C2 domain, reference compound] : 0.810
TTRYLRIHPQSWEHQ [Design M-11, peptide covering L2321T, V2333E] : 71.612
LTRYLKIHPQSWEHQ [Design M-9, peptide covering R2326K, V2333E] : 28.951

Next sequence, DRB1*07:01 to be filled in.
Query: Which DRB1*07:01 reading was recorded for the sequence LTRLLRIHPQSWEHQ [Design M-7, peptide covering Y2324L, V2333E] ?
Response: 33.528
